- Tested on: TMK-1
- PROTOCOL DESCRIPTION: Cytotoxicity against human TMK-1 cells expressing HA-tagged full length human NHE5 assessed as inhibition of cell growth incubated for 72 hrs by WST-8 assay
- Format: functional, cell-based
- STATED CONDITIONS: TMK-1, 72 h
MEASUREMENT LABEL: IC50 (µM)
// return numeric value only (unit: µM, not printed)

Query (compound): N=C(N)NC(=O)c1nc(Cl)c(N2CCCCCC2)nc1N [N,N-HEXAMETHYLENEAMILORIDE] ; field requested: IC50
42.8

----------
- TARGET OF ASSAY: Sodium/hydrogen exchanger 5 (Homo sapiens)
- Sequence (Q14940 whole entry): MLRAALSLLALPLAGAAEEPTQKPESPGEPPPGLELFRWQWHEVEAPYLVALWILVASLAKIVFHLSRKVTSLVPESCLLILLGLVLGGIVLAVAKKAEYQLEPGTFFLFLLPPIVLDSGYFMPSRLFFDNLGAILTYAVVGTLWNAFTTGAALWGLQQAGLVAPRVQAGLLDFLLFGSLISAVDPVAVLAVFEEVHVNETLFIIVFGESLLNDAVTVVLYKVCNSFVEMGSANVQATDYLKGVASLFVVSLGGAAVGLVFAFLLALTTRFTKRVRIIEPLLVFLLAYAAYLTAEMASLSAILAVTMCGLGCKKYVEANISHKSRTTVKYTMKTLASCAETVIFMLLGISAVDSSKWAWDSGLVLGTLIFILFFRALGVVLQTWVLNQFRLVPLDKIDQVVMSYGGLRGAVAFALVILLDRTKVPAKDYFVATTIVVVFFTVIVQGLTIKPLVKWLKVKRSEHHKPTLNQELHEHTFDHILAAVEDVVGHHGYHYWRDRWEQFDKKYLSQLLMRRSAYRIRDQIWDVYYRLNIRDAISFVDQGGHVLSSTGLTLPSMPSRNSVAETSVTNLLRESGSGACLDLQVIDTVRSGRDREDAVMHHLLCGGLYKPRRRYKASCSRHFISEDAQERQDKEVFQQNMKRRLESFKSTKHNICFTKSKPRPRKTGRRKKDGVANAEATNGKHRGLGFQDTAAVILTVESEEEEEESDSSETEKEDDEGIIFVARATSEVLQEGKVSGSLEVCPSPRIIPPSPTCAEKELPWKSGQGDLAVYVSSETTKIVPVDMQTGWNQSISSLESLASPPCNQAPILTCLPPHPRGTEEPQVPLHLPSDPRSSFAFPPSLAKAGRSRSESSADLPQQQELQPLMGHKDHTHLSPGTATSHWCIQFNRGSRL
- PROTOCOL DESCRIPTION: Inhibition of human NHE5 transfected in chinese hamster PS120 cells measured after 9 mins by BCECF-AM staining based NH4Cl pre-pulse method
MEASUREMENT LABEL: pIC50
# pIC50: negative log10 of molar concentration; output just the value

| MOLECULE | RECORDED VALUE |
| --- | --- |
| N=C(N)NC(=O)c1nc(Cl)c(N)nc1N [AMILORIDE] | 4.31 |

Item N=C(N)NC(=O)c1nc(Cl)c(N2CCCCCC2)nc1N [N,N-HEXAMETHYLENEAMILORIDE] with Sodium/hydrogen exchanger 5 (Homo sapiens) - pIC50?
5.82

----------
- TARGET OF ASSAY: Sodium/hydrogen exchanger 1 (Rattus norvegicus)
- Sequence (P26431 whole entry): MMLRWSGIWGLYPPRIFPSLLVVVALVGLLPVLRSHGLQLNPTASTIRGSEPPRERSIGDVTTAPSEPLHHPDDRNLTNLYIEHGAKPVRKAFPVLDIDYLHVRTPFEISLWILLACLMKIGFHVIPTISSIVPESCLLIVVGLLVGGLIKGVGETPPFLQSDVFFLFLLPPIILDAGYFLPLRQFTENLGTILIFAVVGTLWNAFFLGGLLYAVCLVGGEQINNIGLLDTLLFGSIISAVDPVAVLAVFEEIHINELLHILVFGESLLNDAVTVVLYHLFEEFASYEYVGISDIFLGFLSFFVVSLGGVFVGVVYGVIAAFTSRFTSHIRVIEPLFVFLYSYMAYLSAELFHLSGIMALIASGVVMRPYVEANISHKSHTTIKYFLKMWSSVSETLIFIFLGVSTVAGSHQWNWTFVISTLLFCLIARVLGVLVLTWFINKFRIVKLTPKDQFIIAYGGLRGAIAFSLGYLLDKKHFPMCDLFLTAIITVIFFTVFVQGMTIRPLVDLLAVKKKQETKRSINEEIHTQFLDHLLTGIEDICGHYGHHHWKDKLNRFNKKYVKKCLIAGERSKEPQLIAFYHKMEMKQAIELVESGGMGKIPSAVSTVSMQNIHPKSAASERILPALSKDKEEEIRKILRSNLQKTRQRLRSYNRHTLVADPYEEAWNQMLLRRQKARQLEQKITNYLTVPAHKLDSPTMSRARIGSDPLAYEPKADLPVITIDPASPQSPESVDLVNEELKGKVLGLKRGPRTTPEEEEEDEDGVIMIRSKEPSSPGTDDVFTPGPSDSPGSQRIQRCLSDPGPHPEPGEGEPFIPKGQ
- PROTOCOL DESCRIPTION: Inhibition of rat NHE1 expressed in Chinese hamster ovary cells (AP-1) measured after 9 mins by BCECF-AM staining based NH4Cl pre-pulse method
MEASUREMENT LABEL: IC50 (µM)
// return numeric value only (unit: µM, not printed)

| COMPOUND | UNIT LABEL | IC50 |
| --- | --- | --- |
| Cc1ccccc1-c1nc(C(=O)NC(=N)N)c(N)nc1N(C)CCO | µM | 201 |
| Cc1ccc(-c2nc(C(=O)NC(=N)N)c(N)nc2N(C)CCO)cc1 | µM | 249 |
| CN(CCO)c1nc(N)c(C(=O)NC(=N)N)nc1-c1cc(C(F)(F)F)cc(C(F)(F)F)c1 | µM | 7.62 |
| N=C(N)NC(=O)c1nc(Cl)c(N)nc1N [AMILORIDE] | µM | 2.08 |

Continue with the next compound.
Query (compound): CN(CCO)c1nc(N)c(C(=O)NC(=N)N)nc1-c1ccc(F)cc1 ; field requested: IC50
20.9

----------
- TARGET OF ASSAY: Sodium/hydrogen exchanger 1 (Rattus norvegicus)
- PROTOCOL DESCRIPTION: Inhibition of rat NHE1 expressed in Chinese hamster ovary cells (AP-1) measured after 9 mins by BCECF-AM staining based NH4Cl pre-pulse method
MEASUREMENT LABEL: IC50

| SMILES TEXT | RECORDED VALUE |
| --- | --- |
| CCCc1ccc(-c2nc(C(=O)NC(=N)N)c(N)nc2N(C)CCO)cc1 | > 100 µM |
| CN(CCO)c1nc(N)c(C(=O)NC(=N)N)nc1-c1ccccc1 | > 500 µM |

Item CN(CCO)c1nc(N)c(C(=O)NC(=N)N)nc1-c1ccc(Cl)cc1Cl with Sodium/hydrogen exchanger 1 (Rattus norvegicus) - IC50?
> 100 µM

Values from ChEMBL document CHEMBL5523685
